Origin of the recorded values: patent US20220204510A1

Assay Notes: Metabolic stability in liver microsomes
Type: in vitro ADME
Settings: cynomolgus monkey; Cynomolgus monkeys liver microsomes
Quick reference for CLint scaled at 1 μM among some compounds

Entry Smiles	CLint scaled at 1 μM
C[C@]1(NC(=O)C(=O)c2c(Cl)c(C(=O)Nc3ccc(F)c(F)c3)c3n2CCC3)CC[C@H](CC(=O)O)CC1	< 13 mL/min/kg

Please find the next compound below.
Inquiry: In one line, give reported CLint scaled at 1 μM of the entry C[C@]1(NC(=O)C(=O)c2c(Cl)c(C(=O)Nc3cc(F)c(F)c(F)c3)c3n2CCC3)CC[C@H](CC(=O)O)CC1 .
Reply text: < 13 mL/min/kg
